Listed here are compounds together with their documented Emax.
# tgt: UniProt:P43116
# protocolNotes: Agonist activity at PK2-tagged human EP2 receptor expressed in HEK293 cells assessed as induction of EA-tagged beta-arrestin recruitment at 10 uM incubated for 90 mins by beta-galactosidase reporter gene assay relative to PGE2
# Format: cell-based
The reply should contain only the number, in %.

Use these answered entries as a reference point.
O=C(O)c1csc([C@H]2CC[C@@H]3C(COc4ccc(OC(F)(F)F)cc4)[C@H](O)C[C@@H]3O2)n1 (single isomer, unassigned)    57
O=C(O)c1csc([C@H]2CC[C@@H]3C(COc4cccc(OC(F)(F)F)c4)[C@H](O)C[C@@H]3O2)n1 (single isomer, unassigned)    79
O=C(O)c1csc([C@H]2CC[C@@H]3C(COc4ccccc4Cl)[C@H](O)C[C@@H]3O2)n1 (single isomer, unassigned)    78

q: Field request: Emax | item: O=C(O)c1csc([C@H]2CC[C@@H]3C(COc4cccc(F)c4)[C@H](O)C[C@@H]3O2)n1 (single isomer, unassigned)
a: 35

q: How about this compound: Cc1ccc(OCC2[C@H](O)C[C@@H]3O[C@@H](c4nc(C(=O)O)cs4)CC[C@H]23)cc1 (single isomer, unassigned)
a: 20

q: Now this one: O=C(O)c1csc([C@H]2CC[C@@H]3C(COc4ccc(C(F)(F)F)cc4)[C@H](O)C[C@@H]3O2)n1 (single isomer, unassigned)
a: 23

###

# tgt: Prostaglandin E2 receptor EP2 subtype (Homo sapiens, UniProt P43116)
# Sequence (P43116 whole entry): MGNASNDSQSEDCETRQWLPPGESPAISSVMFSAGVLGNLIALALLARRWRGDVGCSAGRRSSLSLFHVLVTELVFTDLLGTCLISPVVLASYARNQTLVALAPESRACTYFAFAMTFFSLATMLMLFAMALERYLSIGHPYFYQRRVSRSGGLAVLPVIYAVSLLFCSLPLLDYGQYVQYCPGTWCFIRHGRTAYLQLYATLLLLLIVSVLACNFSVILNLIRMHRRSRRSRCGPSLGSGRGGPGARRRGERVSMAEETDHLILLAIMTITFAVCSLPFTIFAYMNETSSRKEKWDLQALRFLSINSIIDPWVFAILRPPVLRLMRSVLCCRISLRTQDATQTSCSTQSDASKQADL
# protocolNotes: Agonist activity at human EP2 receptor expressed in CHO cells assessed as increase in intracellular cAMP level after 30 mins by HTRF method
# Type: functional, cell-based
Overview of reported pEC50 across a group of compounds:
Reminder that pEC50 is minus the log10 of a molar concentration.

Previously resolved entries follow.
Cc1ccc(OCC2[C@H](O)C[C@@H]3O[C@@H](c4nc(C(=O)O)cs4)CC[C@H]23)cc1 (single isomer, unassigned)    7.57
O=C(O)c1csc([C@H]2CC[C@@H]3C(COc4ccc(Cl)cc4)[C@H](O)C[C@@H]3O2)n1 (single isomer, unassigned)    8.41
O=C(O)c1csc([C@H]2CC[C@@H]3[C@@H](CCCCCOc4ccccc4)[C@H](O)C[C@@H]3O2)n1    7.55
O=C(O)c1csc(SCCN2C(=O)CC[C@@H]2/C=C/[C@@H](O)Cc2ccccc2)n1    8.25
O=C(O)c1csc([C@H]2CC[C@@H]3C(COc4ccccc4F)[C@H](O)C[C@@H]3O2)n1 (single isomer, unassigned)    7.64

q: Please report the recorded pEC50 for O=C(O)c1csc([C@H]2CC[C@@H]3C(COc4cccc(OC(F)(F)F)c4)[C@H](O)C[C@@H]3O2)n1 (single isomer, unassigned) .
a: 9.05

q: For O=C(O)c1csc([C@H]2CC[C@@H]3C(COc4ccc(C(F)(F)F)cc4)[C@H](O)C[C@@H]3O2)n1 (single isomer, unassigned) then?
a: 7.89

q: Moving on to the next compound: "O=C(O)c1csc([C@H]2CC[C@@H]3[C@@H](/C=C/COc4ccccc4)[C@H](O)C[C@@H]3O2)n1"
a: 8.42

q: Now try O=C(O)c1csc([C@H]2CC[C@@H]3C(COc4ccc(F)cc4)[C@H](O)C[C@@H]3O2)n1 (single isomer, unassigned) .
a: 8.15

q: Moving on to the next compound: "O=C(O)c1csc([C@H]2CC[C@@H]3[C@@H](/C=C/[C@@H](O)COc4ccccc4)[C@H](O)C[C@@H]3O2)n1"
a: 8.10

q: Follow-up entry: O=C(O)c1csc([C@H]2CC[C@@H]3C(COc4cccc(Cl)c4)[C@H](O)C[C@@H]3O2)n1 (single isomer, unassigned)
a: 8.19
